Origin of the recorded values: paper PMC6321222

target: human recombinant His-fused soluble protein MDM2 (residues 1–118) (Homo sapiens, UniProt Q00987); construct: His-fused soluble protein MDM2 (residues 1–118); His; experiment: biochemical; format: binding; details: fit quality calculated using pKi tested by FP
Sequence (Q00987 1-118): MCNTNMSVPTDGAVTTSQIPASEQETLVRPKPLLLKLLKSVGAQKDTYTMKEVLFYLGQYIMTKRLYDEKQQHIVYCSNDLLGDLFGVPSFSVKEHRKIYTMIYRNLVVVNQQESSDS
I'd appreciate it if you marked entries True when FQ-Test is lower than 0.8 and False when it is not.

(Q) Criterion: FQ-Test strictly below 0.8. Is it met by "CCCCN1C(=O)[C@](O)(CC(=O)c2ccccc2OC)c2cc(Br)ccc21" ?
(A) True

(Q) Criterion: FQ-Test strictly below 0.8. Is it met by "CCOc1ccccc1Oc1cnc(N)nc1-c1ccc(OCc2ccc(C)cc2)cc1O" ?
(A) False

(Q) Criterion: FQ-Test strictly below 0.8. Is it met by "Nc1c(Cl)cc([C@@H](O)CN[C@H]2c3ccccc3CSc3ccccc32)cc1Cl" ?
(A) False

(Q) Criterion: FQ-Test strictly below 0.8. Is it met by "O=C(Nc1nc2ccccc2s1)c1ccccc1C(=O)c1ccc(Cl)cc1" ?
(A) False

* * *

target: human recombinant His-fused soluble protein MDM2 (residues 1–118) (Homo sapiens); construct: His-fused soluble protein MDM2 (residues 1–118); His; test: biochemical; settings: fluorescence polarization assay
Hi there, I'd appreciate the recorded Ki for every entry that follows.
Reply with just the number (in nM).

(Q) Quick check: Ki on human recombinant His-fused soluble protein MDM2 (residues 1–118) (Homo sapiens), item "O=C(Nc1nc2ccccc2s1)c1ccccc1C(=O)c1ccc(Cl)cc1" ?
(A) 620

(Q) Quick check: Ki on human recombinant His-fused soluble protein MDM2 (residues 1–118) (Homo sapiens), item "CCOc1ccccc1Oc1cnc(N)nc1-c1ccc(OCc2ccc(C)cc2)cc1O" ?
(A) 590

(Q) Quick check: Ki on human recombinant His-fused soluble protein MDM2 (residues 1–118) (Homo sapiens), item "COc1ccc(OC)c(S(=O)(=O)N(C)CC(=O)Nc2ccccc2OC)c1" ?
(A) 2210

(Q) Quick check: Ki on human recombinant His-fused soluble protein MDM2 (residues 1–118) (Homo sapiens), item "COC(=O)c1cc(Oc2ccc(C(F)(F)F)cc2NS(=O)(=O)c2cccc(Cl)c2C)cs1" ?
(A) 940

(Q) Quick check: Ki on human recombinant His-fused soluble protein MDM2 (residues 1–118) (Homo sapiens), item "Nc1c(Cl)cc([C@@H](O)CN[C@H]2c3ccccc3CSc3ccccc32)cc1Cl" ?
(A) 820

(Q) Quick check: Ki on human recombinant His-fused soluble protein MDM2 (residues 1–118) (Homo sapiens), item "CCCCN1C(=O)[C@](O)(CC(=O)c2ccccc2OC)c2cc(Br)ccc21" ?
(A) 3900

* * *

test system: Hep3B (p53 null); assay: cells; type: cell-based; settings: Homo sapiens, means of three experiments, 72 h, read-out: MTT IC50 Hep3B (p53 null)
I'd appreciate it if you marked entries t when IC50 is lower than 30 µM and f when it is not.

(Q) Criterion: IC50 strictly below 30 µM. Is it met by "CCCCN1C(=O)[C@](O)(CC(=O)c2ccccc2OC)c2cc(Br)ccc21" ?
(A) f

(Q) Criterion: IC50 strictly below 30 µM. Is it met by "COC(=O)c1cc(Oc2ccc(C(F)(F)F)cc2NS(=O)(=O)c2cccc(Cl)c2C)cs1" ?
(A) t

(Q) Criterion: IC50 strictly below 30 µM. Is it met by "Nc1c(Cl)cc([C@@H](O)CN[C@H]2c3ccccc3CSc3ccccc32)cc1Cl" ?
(A) f

(Q) Criterion: IC50 strictly below 30 µM. Is it met by "COc1ccc(OC)c(S(=O)(=O)N(C)CC(=O)Nc2ccccc2OC)c1" ?
(A) f

(Q) Criterion: IC50 strictly below 30 µM. Is it met by "CCOc1ccccc1Oc1cnc(N)nc1-c1ccc(OCc2ccc(C)cc2)cc1O" ?
(A) t

(Q) Criterion: IC50 strictly below 30 µM. Is it met by "O=C(Nc1nc2ccccc2s1)c1ccccc1C(=O)c1ccc(Cl)cc1" ?
(A) f
